Origin of measurements: patent US20230399312A1

Test system: TGF-β-stimulated SMAD3 phosphorylation in BEAS-2B cells
MEASUREMENT DESCRIPTION: Cellular ALK5 potency assay, inhibition of TGF-β stimulated pSMAD3 formation in BEAS-2B cells
Type: cell-based
STUDY CONDITIONS: Homo sapiens, pSMAD3, TGF-β 10 ng/mL, read-out: BEAS2B pIC50 (converted)
OBSERVABLE: IC50

>  <COMPOUND>
Cc1cccc(-c2nccc(Nc3ccnc(Nc4ccc(C(=O)O)cc4)n3)n2)n1

>  <TESTED TARGET>
TGF-β-stimulated SMAD3 phosphorylation in BEAS-2B cells

>  <RESULT>
0.2 to 1.26 µM

$$$$
>  <COMPOUND>
Cc1cccc(-c2nccc(Nc3ccnc(Nc4ccc5c(c4)NCCC5)n3)n2)n1

>  <TESTED TARGET>
TGF-β-stimulated SMAD3 phosphorylation in BEAS-2B cells

>  <RESULT>
0.0251 to 0.158 µM

$$$$
>  <COMPOUND>
Cc1cccc(-c2nccc(Nc3ccnc(Nc4ccc(N5CCN(C(=O)CSC6CCOC6=O)CC5)cc4)n3)n2)n1 (stereo not drawn)

>  <TESTED TARGET>
TGF-β-stimulated SMAD3 phosphorylation in BEAS-2B cells

>  <RESULT>
0.0251 to 0.158 µM

$$$$
>  <COMPOUND>
Cc1cccc(-c2nccc(Nc3ccnc(Nc4ccc(CN5CCN[C@@H](CO)C5)cc4)n3)n2)n1

>  <TESTED TARGET>
TGF-β-stimulated SMAD3 phosphorylation in BEAS-2B cells

>  <RESULT>
0.0251 to 0.158 µM

$$$$
>  <COMPOUND>
Cc1cccc(-c2nccc(Nc3ccnc(Nc4ccc(C(=O)OC5CNC5)s4)n3)n2)n1

>  <TESTED TARGET>
TGF-β-stimulated SMAD3 phosphorylation in BEAS-2B cells

>  <RESULT>
0.0251 to 0.158 µM

$$$$
>  <COMPOUND>
Cc1cccc(-c2nccc(Nc3ccnc(Nc4cncc(CN5CC(C(=O)O[C@H]6CCNC6)C5)c4)n3)n2)n1

>  <TESTED TARGET>
TGF-β-stimulated SMAD3 phosphorylation in BEAS-2B cells

>  <RESULT>
0.0251 to 0.158 µM

$$$$
>  <COMPOUND>
COC1(C)CN(Cc2ccc(Nc3nccc(Nc4ccnc(-c5cccc(C)n5)n4)n3)cc2)C1

>  <TESTED TARGET>
TGF-β-stimulated SMAD3 phosphorylation in BEAS-2B cells

>  <RESULT>
0.0251 to 0.158 µM

$$$$
>  <COMPOUND>
Cc1cccc(-c2nccc(Nc3ccnc(Nc4ccc(CN5CCCC(C(=O)NC6CCNC6)C5)cc4)n3)n2)n1 (racemic)

>  <TESTED TARGET>
TGF-β-stimulated SMAD3 phosphorylation in BEAS-2B cells

>  <RESULT>
0.0251 to 0.158 µM

$$$$
>  <COMPOUND>
Cc1cccc(-c2nccc(Nc3ccnc(Nc4nc(CN5CCN[C@@H](CO)C5)cs4)n3)n2)n1

>  <TESTED TARGET>
TGF-β-stimulated SMAD3 phosphorylation in BEAS-2B cells

>  <RESULT>
0.0251 to 0.158 µM

$$$$
>  <COMPOUND>
CN(C)C1CCN(c2ccc(Nc3nccc(Nc4ccnc(-c5cc(Cl)c(F)cc5F)n4)n3)cc2)CC1

>  <TESTED TARGET>
TGF-β-stimulated SMAD3 phosphorylation in BEAS-2B cells

>  <RESULT>
0.0251 to 0.158 µM

$$$$
>  <COMPOUND>
CCOC(=O)Cc1ccc(Nc2nccc(Nc3ccnc(-c4cccc(C)n4)n3)n2)cc1

>  <TESTED TARGET>
TGF-β-stimulated SMAD3 phosphorylation in BEAS-2B cells

>  <RESULT>
0.0251 to 0.158 µM

$$$$
>  <COMPOUND>
Cc1cccc(-c2nccc(Nc3ccnc(Nc4ccc(CN5CCCNCC5)cc4)n3)n2)n1

>  <TESTED TARGET>
TGF-β-stimulated SMAD3 phosphorylation in BEAS-2B cells

>  <RESULT>
0.0251 to 0.158 µM

$$$$
>  <COMPOUND>
Cc1cccc(-c2nccc(Nc3ccnc(Nc4nc(CN5CCC[C@@H](C(=O)O[C@@H]6CCN(C)C6)C5)cs4)n3)n2)n1

>  <TESTED TARGET>
TGF-β-stimulated SMAD3 phosphorylation in BEAS-2B cells

>  <RESULT>
0.0251 to 0.158 µM

$$$$
>  <COMPOUND>
Cc1cccc(-c2nccc(Nc3ccnc(Nc4ncc(C(=O)OC[C@@H]5CCNC5)s4)n3)n2)n1

>  <TESTED TARGET>
TGF-β-stimulated SMAD3 phosphorylation in BEAS-2B cells

>  <RESULT>
0.2 to 1.26 µM

$$$$
>  <COMPOUND>
Cc1cccc(-c2nccc(Nc3ccnc(Nc4cccc(N(C)C(=O)C5CCNCC5)c4)n3)n2)n1

>  <TESTED TARGET>
TGF-β-stimulated SMAD3 phosphorylation in BEAS-2B cells

>  <RESULT>
0.2 to 1.26 µM

$$$$
>  <COMPOUND>
COc1ccc(Nc2nccc(Nc3ccnc(-c4cccc(C)n4)n3)n2)cc1CN1C[C@@H](C)N[C@@H](C)C1

>  <TESTED TARGET>
TGF-β-stimulated SMAD3 phosphorylation in BEAS-2B cells

>  <RESULT>
0.0251 to 0.158 µM

$$$$
>  <COMPOUND>
Cc1cccc(-c2nccc(Nc3ccnc(Nc4ccc(C(=O)OCCN5C[C@@H](C)N[C@@H](C)C5)nc4)n3)n2)n1

>  <TESTED TARGET>
TGF-β-stimulated SMAD3 phosphorylation in BEAS-2B cells

>  <RESULT>
0.0251 to 0.158 µM

$$$$
>  <COMPOUND>
Cc1cccc(-c2nccc(Nc3ccnc(Nc4ccc(CN5CC(C(=O)OC6CCNCC6)C5)cc4)n3)n2)n1

>  <TESTED TARGET>
TGF-β-stimulated SMAD3 phosphorylation in BEAS-2B cells

>  <RESULT>
0.0251 to 0.158 µM

$$$$
>  <COMPOUND>
Cc1cccc(-c2nccc(Nc3ccnc(Nc4ccc(CN5CCCC(C(=O)OCC6CNC6)C5)cc4)n3)n2)n1 (stereo not drawn)

>  <TESTED TARGET>
TGF-β-stimulated SMAD3 phosphorylation in BEAS-2B cells

>  <RESULT>
0.0251 to 0.158 µM

$$$$
>  <COMPOUND>
Cc1cccc(-c2nccc(Nc3ccnc(Nc4csc(CN5CCNCC5)c4)n3)n2)n1

>  <TESTED TARGET>
TGF-β-stimulated SMAD3 phosphorylation in BEAS-2B cells

>  <RESULT>
≤ 0.02 µM

$$$$
>  <COMPOUND>
Cc1cccc(-c2nccc(Nc3ccnc(Nc4ccc(CN5CCC(C(=O)O[C@@H]6CCN(C)C6)CC5)cc4)n3)n2)n1

>  <TESTED TARGET>
TGF-β-stimulated SMAD3 phosphorylation in BEAS-2B cells

>  <RESULT>
0.0251 to 0.158 µM

$$$$
>  <COMPOUND>
Cc1cccc(-c2nccc(Nc3ccnc(Nc4cccc(C(=O)OCCN5CCNCC5)c4)n3)n2)n1

>  <TESTED TARGET>
TGF-β-stimulated SMAD3 phosphorylation in BEAS-2B cells

>  <RESULT>
0.0251 to 0.158 µM

$$$$
>  <COMPOUND>
Cc1cccc(-c2nccc(Nc3ccnc(Nc4ccc(N5CCNCC5)c(CC(=O)OC5CNC5)c4)n3)n2)n1

>  <TESTED TARGET>
TGF-β-stimulated SMAD3 phosphorylation in BEAS-2B cells

>  <RESULT>
0.2 to 1.26 µM

$$$$
>  <COMPOUND>
Cc1cccc(-c2nccc(Nc3ccnc(Nc4ccc(N)cc4)n3)n2)n1

>  <TESTED TARGET>
TGF-β-stimulated SMAD3 phosphorylation in BEAS-2B cells

>  <RESULT>
≤ 0.02 µM

$$$$
>  <COMPOUND>
CCOC(=O)Cn1cc(-c2ccc(Nc3nccc(Nc4ccnc(-c5cccc(C)n5)n4)n3)cc2)cn1

>  <TESTED TARGET>
TGF-β-stimulated SMAD3 phosphorylation in BEAS-2B cells

>  <RESULT>
0.0251 to 0.158 µM

$$$$
>  <COMPOUND>
Cc1cccc(-c2nccc(Nc3ccnc(Nc4ccc(C(=O)OC[C@H]5CCCNC5)nc4)n3)n2)n1

>  <TESTED TARGET>
TGF-β-stimulated SMAD3 phosphorylation in BEAS-2B cells

>  <RESULT>
0.0251 to 0.158 µM

$$$$
>  <COMPOUND>
Cc1cccc(-c2nccc(Nc3ccnc(Nc4nc(C(=O)O[C@H]5CCN(C)C5)cs4)n3)n2)n1

>  <TESTED TARGET>
TGF-β-stimulated SMAD3 phosphorylation in BEAS-2B cells

>  <RESULT>
0.0251 to 0.158 µM

$$$$
>  <COMPOUND>
Cc1cccc(-c2nccc(Nc3ccnc(Nc4csc(C(=O)OC[C@H]5CCCNC5)c4)n3)n2)n1

>  <TESTED TARGET>
TGF-β-stimulated SMAD3 phosphorylation in BEAS-2B cells

>  <RESULT>
0.0251 to 0.158 µM

$$$$
>  <COMPOUND>
Cc1cccc(-c2nc(Nc3ccnc(Nc4ccc(NC5CCNCC5)cc4)n3)c3cccn3n2)n1

>  <TESTED TARGET>
TGF-β-stimulated SMAD3 phosphorylation in BEAS-2B cells

>  <RESULT>
0.0251 to 0.158 µM

$$$$
>  <COMPOUND>
Cc1cccc(-c2nccc(Nc3ccnc(Nc4csc(C(=O)N[C@@H]5CCNC5)c4)n3)n2)n1

>  <TESTED TARGET>
TGF-β-stimulated SMAD3 phosphorylation in BEAS-2B cells

>  <RESULT>
0.0251 to 0.158 µM

$$$$
